molecular target: GTPase HRas (Homo sapiens); assay: activated Ras mutant GTP-binding inhibitors, SAR follow-up, biochemical, pyrazoline analogs, multiplex bead flow cytometry (AID 2050); conditions: GST-Ras beads, Bodipy-FL-GTP binding, measured here: Ki calculated from EC50
parameter: Ki (nM)

Here's what some known entries look like.
NS(=O)(=O)c1ccc(N2N=C(c3ccc(Cl)cc3)CC2c2ccccc2)cc1 (centres undefined) | 10
O=S(=O)(c1ccc(N2N=C(c3ccc(Br)cc3)CC2c2ccccc2)cc1)C(F)F (centres undefined) | 180

(1) COc1ccc(C2=NN(c3ccccc3)C(c3ccc(Cl)cc3)C2)cc1 (centres undefined)
(2) COc1ccc(C2=NN(c3ccccc3)C(c3ccccc3C(F)(F)F)C2)cc1 (centres undefined)
Response body: label of entry with the larger Ki; valid values 1 , 2 . # reply format: chosen label
2
